Attribution: patent US20110039762A1

Test system: C. jejuni
Test: Kill or inhibit growth/proliferation; morphology, biofilm and growth disruption (Tables 5, 6); also: test concentration or dose not given here
Type: cell-based, Campylobacter jejuni
Set-up: key: A: Peptide aggregates; B: Less hyphal formation; Clumps; Diffuse clumps and small polyps; F: Diffuse growth; H: Thin; I: Growth inhibition; Microcolony formation; Rippled; Small polyps; Thick; W: Halo formation on top, microlonies on bottom
Quantity Measured: Organism, effect

PF-564: peptide having multiple activities (chain 1 TIILNDQINSLQERLNKLNAETDRR; chain 2 TIILNDQINSLQERLNKLNAETDRR; Peptide with targeting and/or antimicrobial activity); C. jejuni (R)
PF-556: peptide having multiple activities (chain 1 SLQIRMNTLTAAKASIEAA; chain 2 SLQIRMNTLTAAKASIEAA; Peptide with targeting and/or antimicrobial activity); C. jejuni (R)

* * *

Test system: S. pneumoniae
Experiment: Kill or inhibit growth/proliferation; morphology, biofilm and growth disruption (Tables 5, 6); also: test concentration or dose not given here
Assay type: cell-based, Streptococcus pneumoniae
Set-up: key: A: Peptide aggregates; B: Less hyphal formation; Clumps; Diffuse clumps and small polyps; F: Diffuse growth; H: Thin; I: Growth inhibition; Microcolony formation; Rippled; Small polyps; Thick; W: Halo formation on top, microlonies on bottom
Quantity Measured: Organism, effect

Please review the following examples before continuing.
PF-562: peptide having multiple activities (chain 1 TPEQWLERSTVVVTGLLNRK; chain 2 TPEQWLERSTVVVTGLLNRK; Peptide with targeting and/or antimicrobial activity); S. pneumoniae (D)
PF-599: peptide having multiple activities (LFEIFKPKH; Peptide with targeting and/or antimicrobial activity); S. pneumoniae (R)
PF-425: peptide having multiple activities (MMELVLKTIIGPIVVGVVLRIVDKWLNKDK; Peptide with targeting and/or antimicrobial activity); S. pneumoniae (D)
PF-454: peptide having multiple activities (chain 1 MSVFVPVTNIFMFIMSPIFNVNLLHFKVYI; chain 2 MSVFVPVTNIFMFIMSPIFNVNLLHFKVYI; Peptide with targeting and/or antimicrobial activity); S. pneumoniae (R)
PF-556: peptide having multiple activities (chain 1 SLQIRMNTLTAAKASIEAA; chain 2 SLQIRMNTLTAAKASIEAA; Peptide with targeting and/or antimicrobial activity); S. pneumoniae (D)
PF-621: peptide having multiple activities (PPSSFLV; Peptide with targeting and/or antimicrobial activity); S. pneumoniae (I)
PF-426: peptide having multiple activities (MLQKYTQMISVTKCIITKNKKTQENVDAYN; Peptide with targeting and/or antimicrobial activity); S. pneumoniae (D)
PF-452: peptide having multiple activities (chain 1 MNNWIKVAQISVTVINEVIDIMKEKQNGGK; chain 2 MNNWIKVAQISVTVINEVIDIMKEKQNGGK; Peptide with targeting and/or antimicrobial activity); S. pneumoniae (R)
PF-439: peptide having multiple activities (chain 1 RVLVLKKFHGIMDGNRNVAVFFVGQ; chain 2 RVLVLKKFHGIMDGNRNVAVFFVGQ; Peptide with targeting and/or antimicrobial activity); S. pneumoniae (R)

// next entry
## Input Fill blank: measured Organism, effect of the substance SLQSQLGPCLHDQRH [PF-448] is ____.
## Output S. pneumoniae (I)

* * *

Test system: C. jejuni
Assay: Kill or inhibit growth/proliferation; morphology, biofilm and growth disruption (Tables 5, 6); also: test concentration or dose not given here
Assay type: cell-based, Campylobacter jejuni
Set-up: key: A: Peptide aggregates; B: Less hyphal formation; Clumps; Diffuse clumps and small polyps; F: Diffuse growth; H: Thin; I: Growth inhibition; Microcolony formation; Rippled; Small polyps; Thick; W: Halo formation on top, microlonies on bottom
Quantity Measured: Organism, effect

PF-393: peptide having multiple activities (chain 1 DLVQSILSEFKKSG; chain 2 DLVQSILSEFKKSG; Peptide with targeting and/or antimicrobial activity); C. jejuni (R)
PF-548: peptide having multiple activities (chain 1 ARPIADLIHFNSTTVTASGDVYYGPG; chain 2 ARPIADLIHFNSTTVTASGDVYYGPG; Peptide with targeting and/or antimicrobial activity); C. jejuni (D)
PF-614: peptide having multiple activities (GLDIYA; Peptide with targeting and/or antimicrobial activity); C. jejuni (R)
ALCSVIKAIELGIINVHLQ [PF-366]; C. jejuni (D)

* * *

System: MRSA
Experiment: Kill or inhibit growth/proliferation; morphology, biofilm and growth disruption (Tables 5, 6); also: test concentration or dose not given here
Type: cell-based, Methicillin-resistant Staphylococcus aureus
Design: key: A: Peptide aggregates; B: Less hyphal formation; Clumps; Diffuse clumps and small polyps; F: Diffuse growth; H: Thin; I: Growth inhibition; Microcolony formation; Rippled; Small polyps; Thick; W: Halo formation on top, microlonies on bottom
Quantity Measured: Organism, effect

PF-630: peptide having multiple activities (chain 1 IPATPIIHS; chain 2 IPATPIIHS; Peptide with targeting and/or antimicrobial activity); MRSA (M)
PF-374: peptide having multiple activities (chain 1 HLFFVKGMFILCQKNQINDE; chain 2 HLFFVKGMFILCQKNQINDE; Peptide with targeting and/or antimicrobial activity); MRSA (M)

* * *

Tested on: microorganisms (e.g., bacteria, yeasts, fungi)
Assay: Targeting peptide binding to target microorganisms (Table 3)
Settings: microorganism the targeting peptide binds; binding in aqueous buffers varied by peptide solubility, preferably 1x PBS
Quantity Measured: Target(s)

1T-75 (GVARGLQLGIKTRTQWGAATGAA; Peptide with targeting and/or antimicrobial activity) [Peptide 1T-75]; S. pneumoniae
1T-73 (GWWEELLHETILSKFKITKALELPIQL; Peptide with targeting and/or antimicrobial activity) [Peptide 1T-73]; S. pneumoniae

* * *

System: microorganisms (e.g., bacteria, yeasts, fungi)
Experiment: Targeting peptide binding to target microorganisms (Table 3)
Conditions: microorganism(s) the targeting peptide binds; binding in aqueous buffers depending on peptide solubility, preferably 1x PBS
Quantity Measured: Target(s)

PF-237 (YVKPKVGVHE; Peptide with targeting and/or antimicrobial activity); S. epidermidis
PF-158 (VRLESRPADLPE; Peptide with targeting and/or antimicrobial activity); S. epidermidis
